molecular target: UniProtKB Q05030; assay: PDGFRβ Cellular Assay (PDGFRb P-Y751 HTRF, PDGF-BB stimulated A10 cells); type: cell-based; settings: A10 cells, 3 hours compound, 15 ng/mL PDGFbb for 10 minutes; read-out: PDGFR Cellular IC50
Sequence (Q05030 whole entry, looked up): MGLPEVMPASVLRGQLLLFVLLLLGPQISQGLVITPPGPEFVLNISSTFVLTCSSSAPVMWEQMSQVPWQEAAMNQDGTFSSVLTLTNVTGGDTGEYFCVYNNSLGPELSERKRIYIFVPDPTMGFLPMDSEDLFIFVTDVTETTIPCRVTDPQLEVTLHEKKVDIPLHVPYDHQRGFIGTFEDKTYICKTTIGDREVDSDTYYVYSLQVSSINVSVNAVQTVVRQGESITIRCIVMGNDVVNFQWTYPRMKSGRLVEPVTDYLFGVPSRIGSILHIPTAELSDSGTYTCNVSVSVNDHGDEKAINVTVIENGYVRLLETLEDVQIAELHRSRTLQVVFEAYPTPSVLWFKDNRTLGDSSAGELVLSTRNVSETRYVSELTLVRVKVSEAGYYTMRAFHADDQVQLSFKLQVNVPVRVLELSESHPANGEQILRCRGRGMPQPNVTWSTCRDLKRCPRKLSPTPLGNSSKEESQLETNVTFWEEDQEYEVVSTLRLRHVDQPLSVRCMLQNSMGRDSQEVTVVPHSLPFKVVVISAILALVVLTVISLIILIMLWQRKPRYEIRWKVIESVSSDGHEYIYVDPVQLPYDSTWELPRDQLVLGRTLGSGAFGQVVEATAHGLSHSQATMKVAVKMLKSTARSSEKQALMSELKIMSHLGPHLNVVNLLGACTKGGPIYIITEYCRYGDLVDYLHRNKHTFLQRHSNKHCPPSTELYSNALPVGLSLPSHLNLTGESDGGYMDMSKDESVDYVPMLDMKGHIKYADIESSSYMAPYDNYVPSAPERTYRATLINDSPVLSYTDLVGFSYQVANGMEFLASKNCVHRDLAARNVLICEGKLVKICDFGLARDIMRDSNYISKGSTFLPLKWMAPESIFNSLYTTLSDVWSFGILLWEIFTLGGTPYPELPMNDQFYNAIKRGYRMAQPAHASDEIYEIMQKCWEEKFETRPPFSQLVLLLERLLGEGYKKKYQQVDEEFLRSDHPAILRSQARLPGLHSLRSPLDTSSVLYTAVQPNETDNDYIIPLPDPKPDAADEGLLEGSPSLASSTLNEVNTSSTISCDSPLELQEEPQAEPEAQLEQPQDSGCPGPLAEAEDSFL
QUANTITY NAME: pIC50
Give bare numbers, as −log10 of the molar value.

// known answers, use as guide
>  <COMPOUND>
COCCn1cc(Nc2ncc3c(Nc4cc(C(=O)NCCN5CCCC5(C)C)cnc4C)nn(C)c3n2)cn1

>  <pIC50>
7.19

$$$$
>  <COMPOUND>
Cn1nc(Nc2cc(C(=O)NCCN3CCCC3(C)C)ccc2F)c2cnc(Nc3ccncn3)nc21

>  <pIC50>
7.17

$$$$
>  <COMPOUND>
Cc1ncc(C(=O)NCCN(CCF)C2CCCC2)cc1Nc1nn(C)c2nc(Nc3cnn(C)c3)ncc12

>  <pIC50>
8.13

$$$$
>  <COMPOUND>
Cc1ncc(C(=O)NCCN2CCC23CCC3)cc1Nc1nn(C)c2nc(Nc3cnn(C)c3)ncc12

>  <pIC50>
7.60

$$$$
>  <COMPOUND>
COCCn1cc(Nc2ncc3c(Nc4cc(NC(=O)CN5CCC(C)(C)C5)cnc4C)nn(C)c3n2)cn1

>  <pIC50>
8.62

$$$$
>  <COMPOUND>
Cn1cc(Nc2ncc3c(Nc4cc(C(=O)NCCN5CCC6(CC6)C5)ccc4F)nn(C)c3n2)cn1

>  <pIC50>
8.34

$$$$
>  <COMPOUND>
Cc1ncccc1Nc1ncc2c(Nc3cc(NC(=O)CN4CCC[C@@H]4C)cnc3C)nn(C)c2n1

>  <pIC50>
8.06

$$$$
>  <COMPOUND>
Cc1ncc(C(=O)NCCN2CC3CCC2CC3)cc1Nc1nn(C)c2nc(Nc3cnn(C)c3)ncc12

>  <pIC50>
7.15

$$$$
>  <COMPOUND>
Cc1ncc(C(=O)NCCN2CCOCC23CC3)cc1Nc1nn(C)c2nc(Nc3cncnc3)ncc12

>  <pIC50>
6.82

$$$$
>  <COMPOUND>
Cc1nn(C)cc1Nc1ncc2c(Nc3cc(C(=O)NCCN4CCC5(CC5)C4)cnc3C)nn(C)c2n1

>  <pIC50>
6.92

$$$$

Each compound below has a reported value. Please supply its pIC50.
1. Cc1ncc(C(=O)NCCC2CCCCC2)cc1Nc1nn(C)c2nc(Nc3ccc(N4CCNCC4)nc3)ncc12
2. Cc1ncc(C(=O)NCCN2C[C@H](C)O[C@@H](C)C2)cc1Nc1nn(C)c2nc(Nc3cncnc3)ncc12
3. COCCn1cc(Nc2ncc3c(Nc4cc(NC(=O)CN5CCC56CCC6)cnc4C)nn(C)c3n2)cn1 [Example 130]
4. Cc1ncc(C(=O)NCCN2CCCC2(C)C)cc1Nc1nn(C)c2nc(Nc3ccncc3)ncc12

(A)
6.90
7.14
8.33
7.40

---

target: VEGFR2, unphosphorylated (Homo sapiens (Human), UniProt P35968); assay: VEGFR ADP GLO assay; details: 5 nM VEGFR2, 1.2 mM ATP, 1 mg/mL Srctide, 180 min
Sequence (P35968 whole entry, looked up): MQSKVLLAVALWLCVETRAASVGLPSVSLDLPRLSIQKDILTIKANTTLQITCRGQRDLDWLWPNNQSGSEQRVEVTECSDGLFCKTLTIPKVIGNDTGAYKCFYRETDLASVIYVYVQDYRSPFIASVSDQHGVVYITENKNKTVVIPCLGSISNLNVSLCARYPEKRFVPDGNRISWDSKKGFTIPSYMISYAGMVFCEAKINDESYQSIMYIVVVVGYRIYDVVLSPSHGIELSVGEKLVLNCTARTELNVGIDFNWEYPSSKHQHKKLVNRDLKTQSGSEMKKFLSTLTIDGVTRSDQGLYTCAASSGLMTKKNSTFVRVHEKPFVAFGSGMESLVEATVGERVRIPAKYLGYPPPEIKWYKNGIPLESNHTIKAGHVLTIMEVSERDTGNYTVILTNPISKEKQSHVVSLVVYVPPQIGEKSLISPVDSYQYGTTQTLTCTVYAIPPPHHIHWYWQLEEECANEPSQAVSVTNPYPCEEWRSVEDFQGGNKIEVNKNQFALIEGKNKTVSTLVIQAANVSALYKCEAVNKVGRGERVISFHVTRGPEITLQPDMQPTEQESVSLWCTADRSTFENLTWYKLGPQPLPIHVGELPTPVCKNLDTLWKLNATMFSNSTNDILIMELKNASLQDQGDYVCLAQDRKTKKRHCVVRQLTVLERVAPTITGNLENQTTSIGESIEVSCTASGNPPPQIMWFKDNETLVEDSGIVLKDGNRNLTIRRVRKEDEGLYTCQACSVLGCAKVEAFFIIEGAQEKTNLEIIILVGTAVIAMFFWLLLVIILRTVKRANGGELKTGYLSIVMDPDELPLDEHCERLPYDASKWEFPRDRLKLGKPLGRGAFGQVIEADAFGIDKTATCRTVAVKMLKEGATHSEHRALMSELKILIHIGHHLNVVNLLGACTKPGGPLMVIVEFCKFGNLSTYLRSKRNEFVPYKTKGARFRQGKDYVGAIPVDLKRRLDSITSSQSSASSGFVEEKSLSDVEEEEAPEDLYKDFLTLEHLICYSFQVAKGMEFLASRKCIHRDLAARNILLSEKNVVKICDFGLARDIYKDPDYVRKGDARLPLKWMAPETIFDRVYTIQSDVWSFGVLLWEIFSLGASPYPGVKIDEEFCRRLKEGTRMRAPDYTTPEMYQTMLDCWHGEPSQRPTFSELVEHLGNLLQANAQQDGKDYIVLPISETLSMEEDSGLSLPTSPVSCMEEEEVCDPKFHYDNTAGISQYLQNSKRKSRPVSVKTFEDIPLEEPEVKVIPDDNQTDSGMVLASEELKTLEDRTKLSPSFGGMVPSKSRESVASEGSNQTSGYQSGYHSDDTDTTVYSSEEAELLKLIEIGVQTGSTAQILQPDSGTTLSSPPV
Could you please report measured IC50 for the items listed next?

// known answers, use as guide
>  <COMPOUND>
COCCn1cc(Nc2ncc3c(Nc4cc(NC(=O)CN5CCC[C@@H]5C)cnc4C)nn(C)c3n2)cn1

>  <IC50>
> 7.5 µM

$$$$
>  <COMPOUND>
Cc1ncc(NC(=O)C2(C(=O)N3CCNCC3)CC2)cc1Nc1nn(C)c2nc(Nc3cnn(C)c3)ncc12

>  <IC50>
> 7.5 µM

$$$$
>  <COMPOUND>
Cc1ncc(C(=O)NCCN2CCCC2(C)C)cc1Nc1nn(C)c2nc(Nc3ccn(C)n3)ncc12

>  <IC50>
> 7.5 µM

$$$$
>  <COMPOUND>
Cc1ncc(C(=O)NCCC2CCCCC2)cc1Nc1nn(C)c2nc(Nc3ccnc(N4CCN(CCO)CC4)c3)ncc12

>  <IC50>
0.143 µM

$$$$
>  <COMPOUND>
Cn1nc(Nc2cc(C(=O)NCCN3CCCC3(C)C)ccc2F)c2cnc(Nc3cncnc3)nc21

>  <IC50>
> 7.5 µM

$$$$
>  <COMPOUND>
Cc1ccc(C(=O)NCCN2CCC[C@@H]2C)cc1Nc1nn(C)c2nc(Nc3cnn(C)c3)ncc12

>  <IC50>
2.4 µM

$$$$
>  <COMPOUND>
Cc1ncc(C(=O)NCCN2[C@H](C)CCC[C@@H]2C)cc1Nc1nn(C)c2nc(Nc3cncnc3)ncc12

>  <IC50>
~7.13 µM

$$$$
>  <COMPOUND>
Cc1ncc(C(=O)NCCN2CCCC2(C)C)cc1Nc1nn(C)c2nc(Nc3ccnn3C)ncc12

>  <IC50>
> 7.5 µM

$$$$
>  <COMPOUND>
Cc1ncc(NC(=O)CN2CC[C@H](C)C2)cc1Nc1nn(C)c2nc(Nc3cnn(C)c3)ncc12

>  <IC50>
> 7.5 µM

$$$$
>  <COMPOUND>
Cc1ncc(C(=O)NCCN2CCC3(CCC3)C2)cc1Nc1nn(C)c2nc(Nc3cnn(C)c3)ncc12

>  <IC50>
> 7.5 µM

$$$$

Each compound below has a reported value. Please supply its IC50.
1. Cc1ncc(NC(=O)CN(CCF)C2CCCC2)cc1Nc1nn(C)c2nc(Nc3cnn(C)c3)ncc12
2. Cc1ncc(C(=O)NCCN2CCOCC23CC3)cc1Nc1nn(C)c2nc(Nc3cncnc3)ncc12
3. Cc1ncc(C(=O)NCCN(CCO)C2CCCC2)cc1Nc1nn(C)c2nc(Nc3cnn(C)c3)ncc12
4. COCCn1cc(Nc2ncc3c(Nc4cc(NC(=O)CN5CCC(C)(C)C5)cnc4C)nn(C)c3n2)cn1
5. COCCN(CCNC(=O)c1cnc(C)c(Nc2nn(C)c3nc(Nc4cnn(C)c4)ncc23)c1)C1CCCC1
6. Cc1ncc(C(=O)NCCN2CCCC2(C)C)cc1Nc1nn(C)c2nc(Nc3ccnc(N4CCOCC4)c3)ncc12
7. Cc1nn(C)cc1Nc1ncc2c(Nc3cc(C(=O)NCCN4CCC[C@@H]4C)cnc3C)nn(C)c2n1
8. Cc1ncc(C(=O)NCCN2CCCC2(C)C)cc1Nc1nn(C)c2nc(NC3CCS(=O)(=O)CC3)ncc12

(A)
1. 5.55 µM
2. > 7.5 µM
3. > 7.5 µM
4. 1.42 µM
5. > 7.5 µM
6. > 7.5 µM
7. > 7.5 µM
8. > 10 µM
